Entries and their MIC values follow.
# Tested on: methicillin-resistant Staphylococcus aureus MRSA 18-596
# run description: micro broth dilution MIC, MRSA 18-596
# Assay type: cell-based
# condition set: MRSA, read-out: The minimum inhibitory concentration, MRSA 18-596
Respond numerically; units are µg/mL and should not be typed.

Example molecules with recorded MIC:
GET /value?item= CN[C@H](CC(C)C)C(=O)N[C@H]1C(=O)N[C@@H](CC(N)=O)C(=O)N[C@H]2C(=O)N[C@H]3C(=O)N[C@H](C(=O)N[C@H](C(=O)O)c4cc(O)cc(O)c4-c4cc3ccc4O)[C@H](O)c3ccc(c(Cl)c3)Oc3cc2cc(c3O[C@@H]2O[C@H](CO)[C@@H](O)[C@H](O)[C@H]2O[C@H]2C[C@](C)(N)[C@H](O)[C@H](C)O2)Oc2ccc(cc2Cl)[C@H]1O [Vancomycin, reference compound] &field=MIC returns 512

GET /value?item= N#Cc1c(N)[se]c2c1CCCCC2 &field=MIC returns 16

GET /value?item= N#Cc1c(N)[se]c2c1CCCC2 &field=MIC returns 128

Could you now look at the following molecule, please?
GET /value?item= CCCCc1c[se]c(N)c1C#N &field=MIC returns 64
